molecules and their reported fold change
Assay: viability loss with induced miR-34 in A549 – imaging, A549 dox-inducible miR-34, nuclei and caspase counts, primary screen (AID 1347080); further: test concentration not given here
Conditions: A549 miR-34 inducible, Hoechst nuclei count, 48 h; measured here: relative caspase fold change +Dox/-Dox

Consider the following illustrative entries.
- Molecule: "NC(CCCP(=O)(O)O)C(=O)O (centres undefined)"
  fold change: 1.92
- Molecule: "O=C(NCC(O)CO)c1ccncc1Nc1ccc(I)cc1F (centres undefined)"
  fold change: 0.75
- Molecule: "COC(=O)C[C@](O)(CCCC(C)(C)O)C(=O)OC1C(OC)=C[C@]23CCCN2CCc2cc4c(cc2C13)OCO4 (some centres undefined)"
  fold change: 0.957
- Molecule: "O=CC(O)C(O)C(O)C(O)CO (centres undefined)"
  fold change: 0.805
- Molecule: "O=Nc1ccc2oc(=O)ccc2c1"
  fold change: 0.992

Ask: Which measured fold change value corresponds to C/C(=C(/CCO)SSCC1CCCO1)N(C=O)Cc1cnc(C)nc1N (centres undefined) ?
Reply: 0.561

Ask: Which fold change is reported for this molecule? CCC1C(=O)N(C)c2cnc(Nc3ccc(C(=O)NC4CCN(C)CC4)cc3OC)nc2N1C1CCCC1 (centres undefined)
Reply: 0.761

Ask: Request the reported fold change associated with CCCCCCCCCCCCCCCC(=O)OC1C(SC)OC(C(NC(=O)C2CC(CCC)CN2C)C(C)Cl)C(O)C1O (centres undefined)
Reply: 0.558

Ask: Recorded fold change of COc1ccc(CC(C)(N)C(=O)O)cc1OC (centres undefined) , please.
Reply: 0.938

Ask: // returns reported fold change for input CCC(C)C(=O)OC1CC(O)C=C2C=CC(C)C(CCC(O)CC(O)CC(=O)O)C21 (centres undefined)
Reply: 1.91

Ask: Please report the recorded fold change for CN=C(NC)NCc1ccccc1 .
Reply: 0.571

Ask: Return reported fold change; argument: CCCCCCCCCCOCCC(=O)O
Reply: 1.29

Ask: Consider the molecule O=C(c1cccc2nccnc12)N1CCc2[nH]nc(COc3ccccc3)c2C1 and give its measured fold change.
Reply: 1.54

Ask: For the molecule c1ccc(NCc2cccnc2)cc1 , what fold change is on record?
Reply: 1.56

Ask: For the molecule CCC1C(=O)N(C)CCN1C(=O)Nc1nc(C)ns1 (centres undefined) , what fold change is on record?
Reply: 1.35

Ask: Form field: reported fold change of Fc1ccc(CN(C2=NCCN2)c2c(Cl)cccc2Cl)cc1
Reply: 0.985

Ask: Any idea what its fold change is? The molecule is COC(=O)C1=C(C)NC(C)=C(C(=O)OC)C1c1cccc(NC(=O)NCCCN2CCC(c3cccc(OC)c3)CC2)c1
Reply: 0.349

Ask: Please report the recorded fold change for COc1ccc(C(=O)/C(Br)=C\C(=O)O)cc1 .
Reply: 1.39

Ask: Please give the measured fold change for this molecule: OCC1OC(OCCc2ccc(O)cc2)C(O)C(O)C1O (centres undefined)
Reply: 0.762

Ask: What measured fold change goes with OC[C@H]1O[C@@H](n2cnc3cncnc32)[C@H](O)[C@@H]1O ?
Reply: 1.29

Ask: Reported fold change for COc1cc(C(C)=O)ccc1O : what is it?
Reply: 0.815

Ask: Quick one: fold change of O=C(Cn1nnc(-c2ccccc2)n1)Nc1ccnn1Cc1ccccc1 ?
Reply: 1.22

Ask: What does the data say about its fold change? Entry: OCCCc1cn(CC2CCN(c3ncnc4nc[nH]c34)CC2)nn1
Reply: 1.9

Ask: I am curious: what fold change value has been reported for CC(C)OC(=O)OCOP(=O)(COC(C)Cn1cnc2c(N)ncnc21)OCOC(=O)OC(C)C (centres undefined) ?
Reply: 0.831

Reference source: PubChem BioAssay
